System: HTT
Assay: HiBiT protein abundance assay, HTT (K562 HiBiT knock-in)
Format: cell-based, human
Settings: HiBiT knock-in K562 cells, 24 hours, top dose 10 μM
# maps each entry to its IC50

Query: Check the records and state IC50 for Cn1cc2c(O)c(-c3ncc4nc(C5CCNCC5)ccc4n3)ccc2n1 [Compound 108]
Response: 100 to 1000 nM

Further cases:
Query: Input CN[C@H]1CCN(c2ccc3nc(-c4cc5cn(C)nc5cc4O)ccc3n2)C1 [Compound 170] , output reported IC50.
Response: < 100 nM

Query: Entry Cn1cc2cc(-c3ccc4nc(N5CC[C@H](NC(C)(C)C)C5)ccc4n3)c(O)c(F)c2n1 (single isomer, unassigned) [Compound 392] needs its IC50 filled in; supply it.
Response: < 100 nM

Query: Specify measured IC50 for Cc1c(O)c(-c2nc(C(=O)N(C)C)c3cc(N4CCNCC4)ccc3n2)cc2cn(C)nc12 [Compound 502] .
Response: 1000 to 10000 nM

Entry source: patent US20250092065A1
